Species: Rattus norvegicus
assay-notes: Open TG-GATES - Regimen: Daily Repeat
Type: toxicity, organism-based, Sprague-Dawley
Parameters: regimen Daily Repeat, gender Male, age 6 weeks
experimental-setup: in vivo, po, 0 mg/kg, […], tissue Blood, route gavage, dose level Control, time 28 day
Listed here are molecules together with their documented MCHC.
Provide a numeric answer, followed by its unit.

Ask | Given "C=C(C)[C@H]1Cc2c(ccc3c2O[C@@H]2COc4cc(OC)c(OC)cc4[C@@H]2C3=O)O1" , respond with its MCHC.
Reply | 33.1%

----------
Species on record: Rattus norvegicus
assay-notes: Open TG-GATES - Regimen: Single
Type: toxicity, organism-based, Sprague-Dawley
Design: regimen Single, gender Male, age 6 weeks
experimental-setup: in vivo, po, 0 mg/kg, 3 h, tissue Blood, route gavage, dose level Control
reported-endpoint: Fbg (mg/dL)
Express the result in mg/dL but write the number alone.

Take a look at these entries with their results.
>  <molecule>
Cn1cc[nH]c1=S [METHIMAZOLE]

>  <quantity-unit>
mg/dL

>  <readout-number>
292.4

$$$$
>  <molecule>
Cc1cccc(C)c1OCC(C)N (stereo not drawn) [MEXILETINE]

>  <quantity-unit>
mg/dL

>  <readout-number>
310.6

$$$$
>  <molecule>
C[C@H]1C(=O)O[C@@H]2CCN3CC=C(COC(=O)[C@](C)(O)[C@]1(C)O)[C@H]23 [MONOCROTALINE]

>  <quantity-unit>
mg/dL

>  <readout-number>
316

$$$$
>  <molecule>
OCCN1CCN(CCCN2c3ccccc3Sc3ccc(C(F)(F)F)cc32)CC1 [FLUPHENAZINE]

>  <quantity-unit>
mg/dL

>  <readout-number>
228.2

$$$$
>  <molecule>
O=[N+]([O-])c1ccc(O)c([N+](=O)[O-])c1 [2,4-DINITROPHENOL]

>  <quantity-unit>
mg/dL

>  <readout-number>
241.6

$$$$
>  <molecule>
CCOC(=O)C(C)(C)Oc1ccc(Cl)cc1 [CLOFIBRATE]

>  <quantity-unit>
mg/dL

>  <readout-number>
234.6

$$$$

Ask | Name the recorded Fbg of the item C[C@H]1O[C@H](O[C@H]2[C@H](O)[C@@H](O)[C@@H](O[C@H]3[C@H](O)[C@@H](O)C(O)O[C@@H]3CO)O[C@@H]2CO)[C@H](O)[C@@H](O)[C@@H]1N[C@H]1C=C(CO)[C@@H](O)[C@H](O)[C@H]1O (stereo partly drawn) [ACARBOSE] in your answer.
Reply | 275

Ask | Return Fbg for the following molecule: C=C(C)[C@H]1Cc2c(ccc3c2O[C@@H]2COc4cc(OC)c(OC)cc4[C@@H]2C3=O)O1 [ROTENONE]
Reply | 207.8
